Measured on: human CYP11B2 (Homo sapiens, UniProt P19099)
Construct: expressed in transfected cells; host or cells: V79 cells (clone V79-hCYP11B2-CLE9)
Sequence (P19099 25-503): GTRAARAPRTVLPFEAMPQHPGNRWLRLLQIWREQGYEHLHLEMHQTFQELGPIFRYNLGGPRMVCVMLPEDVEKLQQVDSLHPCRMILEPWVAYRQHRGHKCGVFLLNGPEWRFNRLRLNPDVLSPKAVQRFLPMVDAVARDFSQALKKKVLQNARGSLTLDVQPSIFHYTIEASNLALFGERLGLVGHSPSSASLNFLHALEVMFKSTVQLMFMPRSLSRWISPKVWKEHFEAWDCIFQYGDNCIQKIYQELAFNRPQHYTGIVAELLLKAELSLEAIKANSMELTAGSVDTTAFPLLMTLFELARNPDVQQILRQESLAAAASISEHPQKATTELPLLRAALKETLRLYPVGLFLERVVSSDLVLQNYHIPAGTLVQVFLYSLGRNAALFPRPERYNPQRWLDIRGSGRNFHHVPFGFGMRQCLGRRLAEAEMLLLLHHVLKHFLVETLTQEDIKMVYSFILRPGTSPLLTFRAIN
Experiment notes: V79-Human-CYP11B2 cell assay (aldosterone HTRF)
Format: cell-based
Condition parameters: V79-hCYP11B2 cells, 125 nM 11-deoxycorticosterone, 3 hours
Measurement label: IC50 (nM)

Line notation: COC(=O)C1(c2cncc(-c3ccc4c(c3)CCc3nncn3-4)c2)CC1
Measurement label: IC50
Reported: 17

====

Measured on: human CYP11B1 (Homo sapiens, UniProt P15538)
Construct: expressed in transfected cells; host or cells: V79MZh11B1 cells
Sequence (P15538 25-503): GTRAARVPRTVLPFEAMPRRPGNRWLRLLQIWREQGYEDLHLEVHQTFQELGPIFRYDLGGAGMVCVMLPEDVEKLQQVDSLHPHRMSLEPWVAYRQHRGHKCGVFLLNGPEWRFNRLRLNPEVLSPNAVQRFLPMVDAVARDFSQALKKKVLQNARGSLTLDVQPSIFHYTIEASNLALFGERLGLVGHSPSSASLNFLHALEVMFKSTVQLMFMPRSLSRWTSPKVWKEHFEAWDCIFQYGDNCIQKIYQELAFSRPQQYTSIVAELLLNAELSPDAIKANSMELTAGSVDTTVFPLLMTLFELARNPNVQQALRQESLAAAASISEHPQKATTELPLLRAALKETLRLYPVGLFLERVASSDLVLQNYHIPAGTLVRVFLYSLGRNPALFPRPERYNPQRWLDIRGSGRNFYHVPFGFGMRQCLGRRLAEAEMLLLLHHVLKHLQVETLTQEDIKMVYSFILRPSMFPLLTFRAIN
Experiment notes: V79MZh11B1 cell assay, [3H]-deoxycorticosterone, HPLC radioflow detection
Format: cell-based
Condition parameters: V79MZh11B1 cells, 100 nM deoxycorticosterone, 25 min, read-out: V79 Human CYP11B1 IC50
pIC50: −log10 of the molar value.

Compound: Cc1nnc2n1-c1cc(F)c(-c3cccnc3)cc1CC2 [Example 167]
pIC50: 4.90
--
Compound: Cc1ccncc1-c1cc(F)c2c(c1)CCc1nnc(C)n1-2 [Example 163]
pIC50: 5.75
--
Compound: Cc1nnc2n1-c1c(F)cc(-c3cncc(C(C)O)c3)cc1CC2 (centres unmarked) [Example 159]
pIC50: 5.41
--
Compound: Cc1nnc2n1-c1c(F)cc(-c3cncc4ccccc34)cc1CC2 [Example 164]
pIC50: 6.96
--
Compound: COc1cncc(-c2cc(F)c3c(c2)CCc2nnc(C)n2-3)c1 [Example 158]
pIC50: 5.74
